Item-by-item account of pIC50
# assay target: UniProt:P30305
# Sequence (P30305 whole entry, the tested form may be a part): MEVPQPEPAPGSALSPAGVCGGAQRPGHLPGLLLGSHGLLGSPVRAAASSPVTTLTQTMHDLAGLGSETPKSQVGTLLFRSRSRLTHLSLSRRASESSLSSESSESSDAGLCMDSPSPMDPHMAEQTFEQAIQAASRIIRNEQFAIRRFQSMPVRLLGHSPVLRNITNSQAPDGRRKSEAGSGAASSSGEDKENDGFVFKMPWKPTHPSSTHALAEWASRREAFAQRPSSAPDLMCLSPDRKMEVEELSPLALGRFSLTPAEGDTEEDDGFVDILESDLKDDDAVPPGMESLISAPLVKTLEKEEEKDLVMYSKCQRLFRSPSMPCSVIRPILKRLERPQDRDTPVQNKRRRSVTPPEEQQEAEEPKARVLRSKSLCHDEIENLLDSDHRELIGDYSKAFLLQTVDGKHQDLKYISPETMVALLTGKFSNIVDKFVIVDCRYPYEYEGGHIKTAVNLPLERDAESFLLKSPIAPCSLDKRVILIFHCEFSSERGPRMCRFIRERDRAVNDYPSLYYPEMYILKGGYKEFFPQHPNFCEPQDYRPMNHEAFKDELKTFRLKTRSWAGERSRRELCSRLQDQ
# measurement protocol: Inhibition of histidine-tagged human recombinant Cdc25B catalytic domain expressed in Escherichia coli
pIC50: −log10 of the molar value.

> print(dat)
              query.smiles    assay.target  endpoint.result
1  O=CCNc1cc(O)c2ccccc2c1O  UniProt:P30305           < 4.30

For the molecule `Cc1c(NCC=O)c(O)c2ccccc2c1O` , what pIC50 is on record?
< 4.30

The reported numbers originate from BindingDB's records for doi:10.1016/j.bmc.2008.10.090.
